# protocol_details: Cryptococcus neoformans growth inhibition, dose response, Alamar Blue, cherry-picks (AID 686998)
# condition_label: 24 h; series mostly up to 35 µM
Results with a measured potency or affinity are listed apart. Records with an inconclusive call do not appear. Calls of active or inactive are those of the source.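 Rule for the calls: active = falling signal with fitted half-maximal potency no higher than twice the top valid tested dose; inconclusive = poor fit quality, or flat fit spanning -70% to -30%; inactive = potency over limit, rising signal, or flat fit inside 30%.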

[
  {
    "compound_structure": "CC(=O)N1[C@@H]2CN(S(=O)(=O)c3ccccc3F)c3ccccc3[C@@H]2[C@@H]1CO",
    "outcome": "inactive"
  },
  {
    "compound_structure": "CN1C(=O)c2cc(NS(=O)(=O)c3cccc(F)c3)ccc2OC[C@@H]2O[C@@H](CC(=O)O)CC[C@H]21",
    "outcome": "inactive"
  },
  {
    "compound_structure": "Cc1cccc(C)c1NC(=O)CNC(=O)C1CCCC1",
    "outcome": "inactive"
  },
  {
    "compound_structure": "CN(C)C(=O)c1ccc(-c2ccc([C@H]3[C@H]4CN(CCC(F)(F)F)CCCCN4[C@H]3CO)cc2)cc1",
    "outcome": "inactive"
  },
  {
    "compound_structure": "C[C@H](CO)N1C[C@H](C)[C@@H](CN(C)C(=O)Nc2ccc(F)cc2)Oc2c(NS(=O)(=O)c3ccccc3)cccc2C1=O",
    "outcome": "inactive"
  },
  {
    "compound_structure": "CCCN1C[C@H](C)[C@@H](OC)CN(C)C(=O)c2cc(NC(=O)c3cccc(F)c3)ccc2OC[C@@H]1C",
    "outcome": "inactive"
  },
  {
    "compound_structure": "COc1ccc(S(=O)(=O)N[C@@H]2C=C[C@@H](CC(=O)N3CCC(Cc4ccccc4)CC3)O[C@H]2CO)cc1",
    "outcome": "inactive"
  },
  {
    "compound_structure": "Cc1noc(C)c1S(=O)(=O)Nc1ccc2c(c1)C(=O)N([C@H](C)CO)C[C@@H](C)[C@H](CN(C)Cc1ccccc1)OCCCC[C@H](C)O2",
    "outcome": "inactive"
  }
]
